test system: Kunming mice; test: Influence on hypnosis effect with pentobarbital sodium doses at the threshold (50 mg/kg i.p.); format: in vivo; conditions: 100 mg/kg intragastric single dose, pentobarbital sodium 50 mg/kg i.p. 60 min later, x ± s, n = 10
Binary label based on time to sleep with cut-off 3 min: below gives 1, not below gives -1.

Regarding CCc1cc(C2CC(=O)c3cc([N+](=O)[O-])c(SC#N)c(C4CCNC4)c3O2)ccc1C(=O)c1ccccc1 (stereo not drawn) [Example 54] , kindly confirm whether its time to sleep is beneath 3 min.
-1

Regarding COc1ccc(C2CC(=O)c3c(cc(OC)c(OC)c3OC)O2)cc1 (stereo not drawn) [Example 65, 5,6,7,4′-tetra methoxyl-flavanone] , kindly confirm whether its time to sleep is beneath 3 min.
-1

Regarding COc1ccc(-c2cc(=O)c3c(OC)c(OC)c(OC)cc3o2)cc1OC [Example 10, 5,6,7,3′,4′-penta methoxyl-flavone] , kindly confirm whether its time to sleep is beneath 3 min.
-1

Regarding CCCCCc1cc(-c2cc(=O)c3c(CC)cc(CCCCCCl)cc3o2)cc(O)c1Cc1ccccc1 [Example 19] , kindly confirm whether its time to sleep is beneath 3 min.
-1

Regarding C=Cc1cc(-c2cc(=O)c3c(C4CCSC4)cc(C(N)=O)cc3o2)cc(N)c1CC (stereo not drawn) [Example 17] , kindly confirm whether its time to sleep is beneath 3 min.
-1

Regarding COc1ccc(-c2cc(=O)c3c(O)cc(OC)c(OC)c3o2)cc1O [Example 2] , kindly confirm whether its time to sleep is beneath 3 min.
-1

Regarding CC=Cc1cc(C(=O)O)c2c(=O)cc(-c3cc(C#N)c(F)c(C(=O)O)c3)oc2c1 [Example 22] , kindly confirm whether its time to sleep is beneath 3 min.
-1

Regarding COc1cc(OC)cc(C2CC(=O)c3c(OC)cc(OC)cc3O2)c1 (stereo not drawn) [Example 49] , kindly confirm whether its time to sleep is beneath 3 min.
-1

Regarding COc1ccc(C2CC(=O)c3c(O)c(OC)c(OC)c(OC)c3O2)cc1OC (stereo not drawn) [Example 64] , kindly confirm whether its time to sleep is beneath 3 min.
-1

Regarding CCCc1cc2c(=O)cc(-c3ccc(C(=O)O)c(C(N)=O)c3)oc2c(I)c1CCS(=O)(=O)O [Example 35] , kindly confirm whether its time to sleep is beneath 3 min.
-1

Regarding N#CSc1ccc(-c2cc(=O)c3cc(N)c(F)c(C#N)c3o2)cc1O [Example 28] , kindly confirm whether its time to sleep is beneath 3 min.
-1

Regarding COc1cc(OC)c2c(=O)cc(-c3cc(OC)c(OC)c(OC)c3)oc2c1 [Example 1, 5,7,3′,4′,5′-penta methoxyl-flavone] , kindly confirm whether its time to sleep is beneath 3 min.
1
